Source of measurements: patent US10266550B2

# experimental.target: E. coli topoisomerase I (Escherichia coli (strain K12))
# measurement.description: biochemical
# Format: biochemical
# measurement.conditions: experimental, converted from IC50
quantity: PIC50 (pIC50 = −log IC50)
I'd appreciate a reply containing only the number, no unit.

// query Report PIC50 (pIC50 = −log IC50) for CC(C)(C)OC(=O)N[C@H]1CCN(c2c(F)cc3c(=O)c(C(=O)O)cn4c3c2Oc2cc(N)ccc2-4)C1 [Compound 15a] tested on E. coli topoisomerase I (Escherichia coli (strain K12)).
// result 5.41

// query // fetch E. coli topoisomerase I (Escherichia coli (strain K12)) PIC50 (pIC50 = −log IC50) for CCOC(=O)c1cn2c3c(c(N4CCN(C)CC4)c(F)cc3c1=O)Oc1cc([N+](=O)[O-])ccc1-2
// result 5.71

// query Value wanted: PIC50 (pIC50 = −log IC50) (E. coli topoisomerase I (Escherichia coli (strain K12))) of entry Nc1ccc2c(c1)Oc1c(N3CCOCC3)c(F)cc3c(=O)c(C(=O)O)cn-2c13 [Compound 11d]
// result 6.01

// query Requested read-out PIC50 (pIC50 = −log IC50), target or system E. coli topoisomerase I (Escherichia coli (strain K12)), entry CCOC(=O)c1cn2c3c(c(F)c(F)cc3c1=O)Oc1cc(C(F)(F)F)ccc1-2
// result 3.60

// query PIC50 (pIC50 = −log IC50) of Nc1ccc2c(c1)Oc1c(N3CCNCC3)c(F)cc3c(=O)c(C(=O)O)cn-2c13 [Compound 11b] on E. coli topoisomerase I (Escherichia coli (strain K12))?
// result 6.62

// query Look up PIC50 (pIC50 = −log IC50) with E. coli topoisomerase I (Escherichia coli (strain K12)) for this compound: Nc1ccc2c(c1)Oc1c(N3CCC(N4CCCCC4)CC3)c(F)cc3c(=O)c(C(=O)O)cn-2c13 [Compound 11g]
// result 6.31

// query Record lookup: for E. coli topoisomerase I (Escherichia coli (strain K12)), what PIC50 (pIC50 = −log IC50) belongs to CCOC(=O)c1cn2c3c(c(F)c(F)cc3c1=O)Oc1cc([N+](=O)[O-])ccc1-2 ?
// result 4.81

###

Please respond with reported selectivity ratio for every item in the list.
# measurement.description: Vero cell cytotoxicity assay
# Format: cell-based
# measurement.conditions: monkey
# Method: MICs of compounds against M. tuberculosis were determined by a modified microplate Alamar blue assay (MABA). Vero cell cytotoxicity assay was performed as previously described.

// query Item under review: O=C(O)c1cn2c3c(c(F)c(F)cc3c1=O)Oc1cc([N+](=O)[O-])c(Cl)cc1-2 . Reported selectivity ratio?
// result > 4.4

// query Need selectivity ratio of Nc1ccc2c(c1)Oc1c(N3CCOCC3)c(F)cc3c(=O)c(C(=O)O)cn-2c13 [Compound 11d] , thanks.
// result 7.1

// query Item CN1CCN(c2c(F)cc3c(=O)c(C(=O)O)cn4c3c2Oc2cc([N+](=O)[O-])ccc2-4)CC1 [Compound 10a] has what recorded selectivity ratio?
// result 5

// query Item Nc1ccc2c(c1)Oc1c(N3CCC(N4CCCCC4)CC3)c(F)cc3c(=O)c(C(=O)O)cn-2c13 [Compound 11g] has what recorded selectivity ratio?
// result 9.8

###

# experimental.target: E. coli topoisomerase I (Escherichia coli (strain K12), UniProt P06612)
# Sequence (P06612 whole entry, looked up): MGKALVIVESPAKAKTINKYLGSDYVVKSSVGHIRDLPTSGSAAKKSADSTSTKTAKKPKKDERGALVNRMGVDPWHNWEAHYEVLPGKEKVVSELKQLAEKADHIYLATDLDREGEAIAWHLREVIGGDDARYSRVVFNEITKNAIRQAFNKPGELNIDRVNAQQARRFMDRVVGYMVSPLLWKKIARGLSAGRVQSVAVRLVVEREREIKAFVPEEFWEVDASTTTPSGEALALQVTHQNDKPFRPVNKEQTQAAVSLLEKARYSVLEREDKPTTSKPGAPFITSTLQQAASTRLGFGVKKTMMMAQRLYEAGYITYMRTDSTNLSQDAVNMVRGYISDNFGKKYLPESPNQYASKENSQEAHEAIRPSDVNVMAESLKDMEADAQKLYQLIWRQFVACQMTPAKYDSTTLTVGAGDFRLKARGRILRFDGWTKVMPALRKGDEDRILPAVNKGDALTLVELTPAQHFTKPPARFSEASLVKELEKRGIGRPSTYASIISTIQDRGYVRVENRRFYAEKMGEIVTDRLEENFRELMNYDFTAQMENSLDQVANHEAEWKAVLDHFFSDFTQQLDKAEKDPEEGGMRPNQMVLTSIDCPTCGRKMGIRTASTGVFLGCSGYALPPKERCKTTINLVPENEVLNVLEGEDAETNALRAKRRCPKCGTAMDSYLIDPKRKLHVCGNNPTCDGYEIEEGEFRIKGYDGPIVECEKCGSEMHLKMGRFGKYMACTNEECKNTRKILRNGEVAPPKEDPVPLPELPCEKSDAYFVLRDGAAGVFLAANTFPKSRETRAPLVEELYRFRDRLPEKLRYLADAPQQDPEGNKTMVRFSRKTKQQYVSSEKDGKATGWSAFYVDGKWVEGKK
# measurement.description: biochemical
# Type: biochemical
# measurement.conditions: IC50 (μM) used for CoMFA, Table 3; E. coli topoisomerase I; single values set for ranges and bounds
quantity: IC50 (µM)
Express it in µM; write the number only.

// query Consider the molecule shown here: O=C(O)c1cn2c3c(c(F)c(F)cc3c1=O)Oc1cc(C(F)(F)F)ccc1-2 What is its recorded IC50?
// result 250
